- measured_target: human RET kinase (Homo sapiens, UniProt P07949)
- Sequence (P07949 29-1114): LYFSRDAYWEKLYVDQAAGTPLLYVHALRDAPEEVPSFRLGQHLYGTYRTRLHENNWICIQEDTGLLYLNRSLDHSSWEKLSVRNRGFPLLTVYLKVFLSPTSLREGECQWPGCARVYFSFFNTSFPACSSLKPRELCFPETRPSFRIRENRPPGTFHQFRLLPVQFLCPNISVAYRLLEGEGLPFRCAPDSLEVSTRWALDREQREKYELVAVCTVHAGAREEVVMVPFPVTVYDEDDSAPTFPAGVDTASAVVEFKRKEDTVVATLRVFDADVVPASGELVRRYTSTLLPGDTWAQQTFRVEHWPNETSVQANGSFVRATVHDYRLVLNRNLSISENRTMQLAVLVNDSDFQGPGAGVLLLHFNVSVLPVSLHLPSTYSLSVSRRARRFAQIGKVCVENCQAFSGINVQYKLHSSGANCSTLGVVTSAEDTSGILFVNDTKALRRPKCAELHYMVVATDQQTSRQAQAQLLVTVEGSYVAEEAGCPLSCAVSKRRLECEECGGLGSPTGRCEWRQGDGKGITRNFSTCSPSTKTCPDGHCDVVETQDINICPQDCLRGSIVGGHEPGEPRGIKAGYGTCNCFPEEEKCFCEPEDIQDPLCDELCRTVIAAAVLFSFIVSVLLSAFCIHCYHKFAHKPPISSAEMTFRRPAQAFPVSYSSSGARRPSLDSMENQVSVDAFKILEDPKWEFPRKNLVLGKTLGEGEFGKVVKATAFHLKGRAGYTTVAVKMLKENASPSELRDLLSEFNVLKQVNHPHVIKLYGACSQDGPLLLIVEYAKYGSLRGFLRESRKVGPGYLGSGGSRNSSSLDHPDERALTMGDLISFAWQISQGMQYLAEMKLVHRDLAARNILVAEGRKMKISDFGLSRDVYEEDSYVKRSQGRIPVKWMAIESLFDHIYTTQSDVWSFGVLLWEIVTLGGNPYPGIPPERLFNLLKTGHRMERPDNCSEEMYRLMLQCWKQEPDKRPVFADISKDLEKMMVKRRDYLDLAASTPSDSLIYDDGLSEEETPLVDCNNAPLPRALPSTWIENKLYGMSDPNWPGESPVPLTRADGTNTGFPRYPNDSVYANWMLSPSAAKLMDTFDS
pIC50: −log10 of the molar value.
Listing of entries alongside the reported pIC50.

>  <compound>
COc1cc(-c2ccc(N3C[C@@H]4[C@H](C3)[C@H]4NC(=O)c3ncccc3Cl)nc2)c2c(C#N)cnn2c1

>  <pIC50>
7.00 to 7.30

$$$$
>  <compound>
COc1ccc(NC(=O)[C@@]2(C)C[C@H]3CN(c4ccc(-c5cc(OCC(C)(C)O)cn6ncc(C#N)c56)cn4)C[C@H]3C2)cn1

>  <pIC50>
7.30 to 8.00

$$$$
>  <compound>
CC(C)(O)COc1cc(-c2ccc(N3C4CC5CC3CC(C(=O)Nc3ncccc3Cl)(C5)C4)nc2)c2c(C#N)cnn2c1

>  <pIC50>
≥ 8.00

$$$$
>  <compound>
CC(C)(O)COc1cc(-c2ccc(N3C[C@@H]4[C@@H](CNC(=O)c5c(F)cccc5Cl)[C@@H]4C3)nc2)c2c(C#N)cnn2c1

>  <pIC50>
≥ 8.00

$$$$
>  <compound>
Cn1cc(-c2cc(-c3ccc(N4C5CC6CC4CC(N)(C6)C5)nc3)c3c(C#N)cnn3c2)cn1

>  <pIC50>
≥ 8.00

$$$$
>  <compound>
CCOc1cc(-c2cnc(N3C4CC5CC3CC(NC(=O)c3ncccc3Cl)(C5)C4)cn2)c2c(C#N)cnn2c1

>  <pIC50>
≥ 8.00

$$$$
>  <compound>
CC(O)COc1cc(-c2ccc(N3C[C@@H]4[C@@H](CNC(=O)c5ncccc5Cl)[C@@H]4C3)nc2)c2c(C#N)cnn2c1 (some centres unmarked)

>  <pIC50>
≥ 8.00

$$$$

# evaluate next
Which pIC50 value belongs to `CC(C)(O)COc1cc(-c2cnc(N3C[C@@H]4[C@@H](CNC(=O)c5ncccc5Cl)[C@@H]4C3)cn2)c2c(C#N)cnn2c1` ?
≥ 8.00
